Source: patent US20260125378A2

pIC50: −log10 of the molar value.
Measurement record for Full length DGKα (D21-10BG, SignalChem) (Homo sapiens); quantity recorded: pIC50.
REPORTED_PROPERTY: pIC50

| COMPOUND | REPORTED_PROPERTY | REPORTED |
| --- | --- | --- |
| CC(c1ccc(F)cc1C(F)(F)F)N1C[C@H](C)N(c2nc(=O)n(C)c3c2nc(CC#N)n3C)C[C@H]1C (single isomer, unassigned) [Compound A33a] | pIC50 | < 5.00 |
| CC[C@H]1CN(C(C)c2ccc(F)cc2C(F)(F)F)[C@H](CC)CN1c1nc(=O)n(C)c2c1nc(CC#N)n2C (single isomer, unassigned) [Compound A34b] | pIC50 | < 5.00 |
| COc1cc(F)ccc1C(C)N1C[C@H](C)N(c2nc(=O)n(C)c3c2nc(CC#N)n3C)C[C@H]1C (single isomer, unassigned) [Compound A24a] | pIC50 | < 5.00 |

###

Entries and their measured IC50 follow.
ASSAYED_SYSTEM: Full length DGKα (D21-10BG, SignalChem) (Homo sapiens)
Construct: Full length DGKα (D21-10BG, SignalChem); purchased SignalChem D21-10BG
Sequence (P23743 whole entry): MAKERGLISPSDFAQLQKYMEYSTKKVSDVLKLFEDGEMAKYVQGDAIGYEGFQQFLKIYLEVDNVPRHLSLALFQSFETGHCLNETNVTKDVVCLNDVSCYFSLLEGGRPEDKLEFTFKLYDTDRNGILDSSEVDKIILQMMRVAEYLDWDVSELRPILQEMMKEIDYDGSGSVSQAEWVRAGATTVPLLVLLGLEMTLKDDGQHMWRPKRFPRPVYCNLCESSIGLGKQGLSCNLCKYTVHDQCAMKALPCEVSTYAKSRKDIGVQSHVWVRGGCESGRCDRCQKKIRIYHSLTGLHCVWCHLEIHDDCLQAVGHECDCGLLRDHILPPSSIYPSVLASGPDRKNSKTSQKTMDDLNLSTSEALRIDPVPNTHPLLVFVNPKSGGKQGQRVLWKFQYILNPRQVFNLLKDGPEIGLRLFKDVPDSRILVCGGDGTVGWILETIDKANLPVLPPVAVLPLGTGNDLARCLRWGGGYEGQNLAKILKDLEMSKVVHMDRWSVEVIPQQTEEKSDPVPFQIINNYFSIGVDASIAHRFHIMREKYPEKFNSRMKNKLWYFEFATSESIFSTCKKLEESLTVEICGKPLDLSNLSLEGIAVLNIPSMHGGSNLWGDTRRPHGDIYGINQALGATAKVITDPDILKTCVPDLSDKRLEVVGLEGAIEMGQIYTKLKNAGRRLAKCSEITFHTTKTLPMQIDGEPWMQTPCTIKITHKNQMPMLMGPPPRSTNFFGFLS
ASSAY_REMARKS: Biochemical DGK IC50 assay (ADP-Glo, lipid micelle substrate), DGKα
CONDITION_NOTES: 1 hour preincubation, 1 hour reaction, room temperature
Experimental: Enzymatic reactions of DGKζ, DGKα and DGKδ were performed using ADP-Glo assay with lipid micelle substrate. […] Full length DGKα (D21-10BG, SignalChem) and full length DGKδ (D23-10G, SignalChem) were purchased. Lipid micelle was prepared by dissolving DAG (Sigma, 317505-10 MG) and PS (Sigma, P7769-100 MG) with chloroform which was furtherly removed by rotary evaporation. […]
REPORTED_PROPERTY: IC50

| MOLECULE | REPORTED_PROPERTY | REPORTED |
| --- | --- | --- |
| CCn1c(CC#N)nc2c(N3C[C@@H](C)N(C(C)c4cccc(OC(C)C)n4)C[C@@H]3C)nc(=O)n(C)c21 (single isomer, unassigned) [Compound A117a] | IC50 | > 150 µM |
| CC(c1ccc(F)cc1C(F)(F)F)N1C[C@H](C)N(c2cc(=O)n(C)c3[nH]c(CC#N)nc23)C[C@H]1C (single isomer, unassigned) [Compound A9a] | IC50 | > 10 µM |
| CCn1c(CC#N)nc2c(N3C[C@@H](C)N(C(C)c4ccc(F)cc4C(F)(F)F)C[C@@H]3C)nc(=O)n(C)c21 (single isomer, unassigned) [Compound A35b] | IC50 | > 150 µM |
| COC[C@H]1CN(C(C)c2ccc(F)cc2C(F)(F)F)[C@H](C)CN1c1nc(=O)n(C)c2c1nc(CC#N)n2C (stereo partly shown) [Compound A10] | IC50 | > 10 µM |
| COC[C@H]1CN(C(C)c2ccc(F)cc2C(F)(F)F)[C@H](C)CN1c1nc(=O)n(C)c2c1nc(CC#N)n2C (single isomer, unassigned) [Compound A10b] | IC50 | > 10 µM |
| CC(c1ccc2c(c1)OC(C)(C)CO2)N1C[C@H](C)N(c2nc(=O)n(C)c3c2nc(CC#N)n3C2CC2)C[C@H]1C (stereo partly shown) [Compound A86] | IC50 | > 150 µM |
| CCn1c(CC#N)nc2c(N3C[C@@H](C)N(C(C)c4ccc5c(c4)OC(C)(C)CC5=O)C[C@@H]3C)nc(=O)n(C)c21 (stereo partly shown) [Compound A81] | IC50 | > 150 µM |
| Cc1ccc(C(C)N2C[C@H](C)N(c3c(F)c(=O)n(C)c4c3nc(CC#N)n4C)C[C@H]2C)c(C(F)(F)F)c1 (single isomer, unassigned) [Compound A15b] | IC50 | > 10 µM |
| CCn1c(CC#N)nc2c(N3C[C@@H](C)N(C(C)c4ccc(F)c(C(F)(F)F)c4)C[C@@H]3C)nc(=O)n(C)c21 (stereo partly shown) [Compound A113] | IC50 | > 150 µM |
| Cc1cnc2ccc(C(C)N3C[C@H](C)N(c4nc(=O)n(C)c5c4nc(CC#N)n5C)C[C@H]3C)cc2n1 (single isomer, unassigned) [Compound A49b] | IC50 | > 150 µM |
